- Tested on: A. baumannii strain 1403
- Assay type: cell-based, Acinetobacter baumannii
- Measurement Conditions: serial passage, 8 days, start 0.5× MIC
Property Measured: increase in MIC over the 8-day test period

# Compound, Assay Target, Test Result
measured = [
    ("Cc1cc(NS(=O)(=O)c2ccc(N)cc2)no1 [SMX, Sulfamethoxazole, reference compound]", "A. baumannii strain 1403", "128 fold"),
    ("CNc1nc(NCc2ccccc2)nc2ccc(Br)cc12 [Compound 4]", "A. baumannii strain 1403", "4 fold"),
    ("CNc1nc(NCc2ccccc2)nc2ccc(C)cc12 [Compound 5]", "A. baumannii strain 1403", "4 fold"),
    ("COc1cc(Cc2cnc(N)nc2N)cc(OC)c1OC [TMP, trimethoprim, reference compound]", "A. baumannii strain 1403", "64 fold"),
]

###

- Tested on: A. baumannii 1646
- Assay Details: MIC assay, strain 1646
- Type: cell-based, Acinetobacter baumannii
- Measurement Conditions: Acinetobacter baumannii; strain 1646; Tables 1, 3, 4, 5 and footnotes; read-out: 1646 MIC
- Procedure: MIC and MBC assays were performed in this study as documented by us previously.^17,23,24,25 The A. baumannii strains used are detailed in Table 7.
Some molecules, each annotated with its measured MIC.
Property Measured: MIC (µM)

# Molecule, Test Result
data = [
    ("CNc1nc(NCCc2ccccc2)nc2ccc(C)cc12", 2),
    ("CNc1nc(NCCc2ccccc2)nc2ccccc12", 12),
    ("C=Cc1ccc2nc(NCc3ccccc3)nc(NC)c2c1", 2),
    ("CCc1ccc2nc(NCc3ccccc3)nc(NC)c2c1", 2),
    ("CNc1nc(NCc2ccccc2)c2cc(OC)ccc2n1", 6),
    ("CNc1nc(NCc2ccccc2)c2cc(C)ccc2n1", 6),
    ("CNc1nc(NCc2ccccc2)c2cc(Br)ccc2n1", 2),
    ("CNc1nc(NCc2ccccc2)nc2ccc(C(C)C)cc12", 25),
    ("CCCCCc1ccc2nc(NCc3ccccc3)nc(NC)c2c1", 2),
    ("CNc1nc(NCc2ccccc2)c2cc(Cl)ccc2n1", 4),
    ("Cc1cc(NS(=O)(=O)c2ccc(N)cc2)no1 [SMX, Sulfamethoxazole, reference compound]", 118),
    ("CCC/C=C/c1ccc2nc(NCc3ccccc3)nc(NC)c2c1", 2),
    ("CNc1nc(NCc2ccccc2)nc2ccc(C3=CCCC3)cc12", 2),
    ("COc1cc(Cc2cnc(N)nc2N)cc(OC)c1OC [TMP, trimethoprim, reference compound]", 34),
    ("CNc1nc(NCc2ccccc2)nc2ccc(Cl)cc12", 2),
    ("CNc1nc(NCc2ccccc2)nc2cc(Cl)ccc12", 6),
]

###

Each entry below lists one item and its recorded log10(MBC) value.
- Test system: A. baumannii 1651
- Assay Details: minimal bactericidal concentration (MBC) assay, strain 1651
- Assay type: cell-based
- Measurement Conditions: Acinetobacter baumannii, Table 8, read-out: MBC90 1651
Property Measured: log10(MBC) (log10 of the value in µM)

# Compound, Assay Target, log10(MBC)
measured = [
    ("CCC/C=C/c1ccc2nc(NCc3ccccc3)nc(NC)c2c1", "A. baumannii 1651", 0.76),
    ("CCCCCc1ccc2nc(NCc3ccccc3)nc(NC)c2c1", "A. baumannii 1651", 0.61),
    ("CNc1nc(NCc2ccccc2)nc2ccc(Br)cc12", "A. baumannii 1651", 0.32),
    ("CNc1nc(NCc2ccccc2)nc2ccc(C3=CCCCC3)cc12", "A. baumannii 1651", 0.60),
    ("CNc1nc(NCc2ccccc2)nc2ccc(C)cc12", "A. baumannii 1651", 0.18),
    ("CNc1nc(NCc2ccccc2)nc2ccc(C3CCCCC3)cc12", "A. baumannii 1651", 1.45),
]

###

- Tested on: A. baumannii 1649
- Assay Details: MIC assay, strain 1649
- Assay type: cell-based, Acinetobacter baumannii
- Measurement Conditions: Acinetobacter baumannii; strain 1649; lead quinazolines, Table 8; read-out: MIC 1649
This section presents molecules with their documented MIC values.

# Compound, Uom, MIC
records = [
    ("CCCCCc1ccc2nc(NCc3ccccc3)nc(NC)c2c1", "µM", 10),
    ("CNc1nc(NCc2ccccc2)nc2ccc(Br)cc12", "µM", 11),
    ("CNc1nc(NCc2ccccc2)nc2ccc(C3=CCCCC3)cc12", "µM", 8),
    ("CNc1nc(NCc2ccccc2)nc2ccc(C3CCCCC3)cc12", "µM", 15),
    ("CCC/C=C/c1ccc2nc(NCc3ccccc3)nc(NC)c2c1", "µM", 10),
    ("CNc1nc(NCc2ccccc2)nc2ccc(C)cc12", "µM", 21),
]

###

# MBC listing for each entry below
- System: A. baumannii 1652
- Assay Details: minimal bactericidal concentration (MBC) assay, strain 1652
- Type: cell-based
- Measurement Conditions: Acinetobacter baumannii, Table 8, read-out: MBC90 1652
Property Measured: MBC (µM)

# Compound, Property Measured, Test Result
rows = [
    ("CNc1nc(NCc2ccccc2)nc2ccc(C)cc12", "MBC", 12),
    ("CCC/C=C/c1ccc2nc(NCc3ccccc3)nc(NC)c2c1", "MBC", 23),
    ("CNc1nc(NCc2ccccc2)nc2ccc(Br)cc12", "MBC", 9.7),
    ("CNc1nc(NCc2ccccc2)nc2ccc(C3=CCCCC3)cc12", "MBC", 11),
    ("CCCCCc1ccc2nc(NCc3ccccc3)nc(NC)c2c1", "MBC", 23),
    ("CNc1nc(NCc2ccccc2)nc2ccc(C3CCCCC3)cc12", "MBC", 17),
]

###

- Test system: human HepG2 cells
- Assay type: cell-based
- Measurement Conditions: human, 48 h
The label YES is reserved for LD50(HepG2) strictly under 20 µM; NO covers values equal to or above it.

# Compound, Assay Target, Category Label
measured = [
    ("CNc1nc(NCc2ccccc2)nc2ccc(C)cc12 [Compound 5]", "human HepG2 cells", "NO"),
    ("CNc1nc(NCc2ccccc2)nc2ccc(C3=CCCCC3)cc12 [Compound 29]", "human HepG2 cells", "NO"),
    ("CCC/C=C/c1ccc2nc(NCc3ccccc3)nc(NC)c2c1 [Compound 26]", "human HepG2 cells", "YES"),
    ("CNc1nc(NCc2ccccc2)nc2ccc(C3CCCCC3)cc12 [Compound 30]", "human HepG2 cells", "YES"),
    ("CCCCCc1ccc2nc(NCc3ccccc3)nc(NC)c2c1 [Compound 27]", "human HepG2 cells", "YES"),
    ("CNc1nc(NCc2ccccc2)nc2ccc(Br)cc12 [Compound 4]", "human HepG2 cells", "NO"),
]

###

- Tested on: A. baumannii 1651
- Assay Details: MIC assay, strain 1651
- Format: cell-based, Acinetobacter baumannii
- Measurement Conditions: Acinetobacter baumannii; strain 1651; Table 2; read-out: 1651 MIC

# Compound, Assay Target, Uom, Censoring Operator, MIC
measured = [
    ("CNc1nc(NCc2ccccc2)nc2ccc(C)cc12", "A. baumannii 1651", "µM", "=", 10),
    ("CNc1nc(NCc2ccccc2)nc2ccc(Br)cc12", "A. baumannii 1651", "µM", "=", 8),
    ("CNc1nc(NCc2ccccc2)nc2ccccc12", "A. baumannii 1651", "µM", ">", 50),
    ("CNc1nc(NCc2ccccc2)nc2cc(C)ccc12", "A. baumannii 1651", "µM", "=", 12),
    ("CNc1nc(NCc2ccccc2)nc2cc(Br)ccc12", "A. baumannii 1651", "µM", "=", 10),
]

###

- Test system: A. baumannii 1646
- Assay Details: MIC assay, strain 1646
- Type: cell-based, Acinetobacter baumannii
- Measurement Conditions: Acinetobacter baumannii; strain 1646; Tables 1, 3, 4, 5 and footnotes; read-out: 1646 MIC

# Compound, MIC [µM]
data = [
    ("C=C(C)c1ccc2nc(NCc3ccccc3)nc(NC)c2c1", 2),
    ("CNc1nc(NCc2ccccc2)nc2ccc(C3CCCCC3)cc12", 2),
    ("CNc1nc(NCc2ccccc2)nc2ccc(C3=CCCCC3)cc12", 2),
    ("CNc1nc(NCCc2ccccc2)nc2ccc(Br)cc12", 2),
    ("CNc1nc(NCCc2ccccc2)nc2ccc(OC)cc12", 4),
    ("CNc1nc(NCc2ccccc2)c2ccc(Cl)cc2n1", 4),
    ("CNc1nc(NCCc2ccccc2)nc2ccc(Cl)cc12", 2),
    ("CNc1nc(NCc2ccccc2)nc2ccc(OC)cc12", 2),
    ("CNc1nc(NCc2ccccc2)c2ccc(Br)cc2n1", 4),
    ("CNc1nc(NCc2ccccc2)c2ccc(C)cc2n1", 12),
]
